Origin of the recorded values: PubChem BioAssay AID256

- System: CD2F1 mice, L1210 leukemia ip, survival T/C
- method_notes: NCI In Vivo Anticancer Drug Screen. Data for tumor model L1210 Leukemia (intraperitoneal) in CD2F1 (CDF1) mice
- condition: endpoint: mean survival time; dose: 100.0 mg/kg/injection; schedule: Q01DX009 (ip); vehicle: saline with Tween-80; higher = longer survival
- Description: The antitumor activity of compounds was measured in mice bearing transplantable tumors. Survival or tumor size were measured and the results are expressed as the measurement made in the treated group (T) divided by the measurement made in the vehicle treated control group (C). The tumor model used in this assay is L1210 Leukemia (intraperitoneal) in CD2F1 (CDF1) mice
Toxic doses and inconclusive results are not listed.

>  <compound>
CC1(C)CC(=O)C2OC2(C)C1 (stereo unspecified)

>  <T/C>
100 % of control

$$$$
>  <compound>
COC(=O)c1ccccc1N=NNc1ccc(C(F)(F)F)c([N+](=O)[O-])c1

>  <T/C>
103 % of control

$$$$
>  <compound>
Cn1ccoc1=NC1CCCCC1

>  <T/C>
94 % of control

$$$$
>  <compound>
CC(C)C1=CC2=CCC3C(C)(C(=O)O)CCCC3(C)C2CC1 (stereo unspecified)

>  <T/C>
96 % of control

$$$$
>  <compound>
Cc1ccccc1NC(=O)c1ccccc1

>  <T/C>
97 % of control

$$$$
>  <compound>
CC(C)=C(C)c1ccccc1

>  <T/C>
106 % of control

$$$$

====

- Tested on: CD2F1 mice, L1210 leukemia ip, survival T/C
- method_notes: NCI In Vivo Anticancer Drug Screen. Data for tumor model L1210 Leukemia (intraperitoneal) in CD2F1 (CDF1) mice
- condition: endpoint: mean survival time; dose: 200.0 mg/kg/injection; schedule: Q04DX003 (ip); vehicle: saline with Tween-80; higher = longer survival
Toxic doses and inconclusive results are not listed. Non-standard residues stand in square brackets, D forms with d. Residues, ends and D or L forms follow the SMILES beside them. ξ: configuration not given here. *: point of attachment. ξF = NC(Cc1ccccc1)C(=O)O; Cbz = O=C(OCc1ccccc1)*

>  <compound>
O=C(CCBr)NCc1ccccc1

>  <target_under_test>
CD2F1 mice, L1210 leukemia ip, survival T/C

>  <T/C>
98 % of control

$$$$
>  <compound>
Nc1c(Br)cc2c(c1Br)Cc1cc(Cl)ccc1-2

>  <target_under_test>
CD2F1 mice, L1210 leukemia ip, survival T/C

>  <T/C>
100 % of control

$$$$
>  <compound>
OC1CC2CC2CC1O (centres undefined)

>  <target_under_test>
CD2F1 mice, L1210 leukemia ip, survival T/C

>  <T/C>
92 % of control

$$$$
>  <compound>
O=C(O)c1c(F)c(F)c(F)c(Br)c1F

>  <target_under_test>
CD2F1 mice, L1210 leukemia ip, survival T/C

>  <T/C>
93 % of control

$$$$
>  <compound>
CC(=O)OC1CCC2(C)C(=CCC3C2CCC2(C)C(C(C)CCCC(C)(C)O)CCC32)C1 (centres undefined)

>  <target_under_test>
CD2F1 mice, L1210 leukemia ip, survival T/C

>  <T/C>
89 % of control

$$$$
>  <compound>
O=C(O)c1cc(Cl)c(C(=O)O)cc1Cl

>  <target_under_test>
CD2F1 mice, L1210 leukemia ip, survival T/C

>  <T/C>
102 % of control

$$$$
>  <compound>
CCOC(=O)C(C(C)=O)C(=O)c1ccc([N+](=O)[O-])cc1 (centres undefined)

>  <target_under_test>
CD2F1 mice, L1210 leukemia ip, survival T/C

>  <T/C>
102 % of control

$$$$
>  <compound>
CC(C)C1=CC23CCC4C(C)(C(=O)O)CCCC4(C)C2CC1OO3 (centres undefined)

>  <target_under_test>
CD2F1 mice, L1210 leukemia ip, survival T/C

>  <T/C>
92 % of control

$$$$
>  <compound>
Cc1[nH]c2ccccc2c1C1=CC(=O)c2ccccc2C1=O

>  <target_under_test>
CD2F1 mice, L1210 leukemia ip, survival T/C

>  <T/C>
104 % of control

$$$$
>  <compound>
CCCCCCCCCCCCCCOc1ccc(C(=O)O)cc1

>  <target_under_test>
CD2F1 mice, L1210 leukemia ip, survival T/C

>  <T/C>
90 % of control

$$$$
>  <compound>
O=C(O)/C=C/C(=O)Nc1ccc(I)cc1

>  <target_under_test>
CD2F1 mice, L1210 leukemia ip, survival T/C

>  <T/C>
98 % of control

$$$$
>  <compound>
Cc1ccc(S(=O)(=O)OC(C#N)c2ccccc2)cc1 (centres undefined)

>  <target_under_test>
CD2F1 mice, L1210 leukemia ip, survival T/C

>  <T/C>
107 % of control

$$$$
>  <compound>
CC/C=C(\CC(=O)OCC)C(=O)OCC

>  <target_under_test>
CD2F1 mice, L1210 leukemia ip, survival T/C

>  <T/C>
106 % of control

$$$$
>  <compound>
CCOC(=O)CN/N=C(\N)CSS(=O)(=O)O

>  <target_under_test>
CD2F1 mice, L1210 leukemia ip, survival T/C

>  <T/C>
97 % of control

$$$$
>  <compound>
Fc1ccc2nc(C(F)(F)F)cc(Br)c2c1

>  <target_under_test>
CD2F1 mice, L1210 leukemia ip, survival T/C

>  <T/C>
98 % of control

$$$$
>  <compound>
CCOC(=O)c1ccc(OC(=O)Nc2cc(C)ccc2C)cc1

>  <target_under_test>
CD2F1 mice, L1210 leukemia ip, survival T/C

>  <T/C>
92 % of control

$$$$
>  <compound>
c1ccc2c(c1)Nc1ccccc1S2

>  <target_under_test>
CD2F1 mice, L1210 leukemia ip, survival T/C

>  <T/C>
108 % of control

$$$$
>  <compound>
CC(=O)CC1CC2(CCC1=O)OCCO2 (centres undefined)

>  <target_under_test>
CD2F1 mice, L1210 leukemia ip, survival T/C

>  <T/C>
93 % of control

$$$$
>  <compound>
Nc1ccc2cc(S(=O)(=O)O)cc(O)c2c1

>  <target_under_test>
CD2F1 mice, L1210 leukemia ip, survival T/C

>  <T/C>
102 % of control

$$$$
>  <compound>
CC(=O)OC1CC2CC(C1C)C2(C)C (centres undefined)

>  <target_under_test>
CD2F1 mice, L1210 leukemia ip, survival T/C

>  <T/C>
88 % of control

$$$$
>  <compound>
Cn1c(-c2ccccc2)cc(=O)cc1-c1ccccc1

>  <target_under_test>
CD2F1 mice, L1210 leukemia ip, survival T/C

>  <T/C>
97 % of control

$$$$
>  <compound>
O=C(CNC(=O)OCc1ccccc1)NCC(=O)NC(Cc1ccccc1)C(=O)O (stereo not drawn) (Cbz-Gly-Gly-[ξF]-OH)

>  <target_under_test>
CD2F1 mice, L1210 leukemia ip, survival T/C

>  <T/C>
93 % of control

$$$$
>  <compound>
NC(=S)Nc1ccc(C(=O)O)cc1

>  <target_under_test>
CD2F1 mice, L1210 leukemia ip, survival T/C

>  <T/C>
94 % of control

$$$$
>  <compound>
C[S+](C)CCC1NC(=O)NC1=O (centres undefined)

>  <target_under_test>
CD2F1 mice, L1210 leukemia ip, survival T/C

>  <T/C>
102 % of control

$$$$
>  <compound>
CCCCCCOc1ccc(C=Nc2ccc(CC)cc2)cc1

>  <target_under_test>
CD2F1 mice, L1210 leukemia ip, survival T/C

>  <T/C>
91 % of control

$$$$
>  <compound>
CCOC(=O)c1ccc(OC(=O)Nc2ccccc2OC)cc1

>  <target_under_test>
CD2F1 mice, L1210 leukemia ip, survival T/C

>  <T/C>
100 % of control

$$$$
>  <compound>
COc1ccc2[nH]c(-c3ccccc3)cc2c1

>  <target_under_test>
CD2F1 mice, L1210 leukemia ip, survival T/C

>  <T/C>
88 % of control

$$$$
>  <compound>
Cc1cccc(Cl)c1C#N

>  <target_under_test>
CD2F1 mice, L1210 leukemia ip, survival T/C

>  <T/C>
101 % of control

$$$$
>  <compound>
CC(=O)OC1CCC2(C)C3CCC4(C)C(O)CCC4C3CC(O)C2(O)C1 (centres undefined)

>  <target_under_test>
CD2F1 mice, L1210 leukemia ip, survival T/C

>  <T/C>
87 % of control

$$$$
>  <compound>
Cc1ccccc1NC(=O)C1CCC(C)(C(=O)O)C1(C)C (centres undefined)

>  <target_under_test>
CD2F1 mice, L1210 leukemia ip, survival T/C

>  <T/C>
93 % of control

$$$$
>  <compound>
CCC[n+]1c(C)oc2ccc(-c3ccccc3)cc21

>  <target_under_test>
CD2F1 mice, L1210 leukemia ip, survival T/C

>  <T/C>
101 % of control

$$$$
>  <compound>
CC(C)(C)C(=O)CC(=O)C(C)(C)C.CC(C)(C)C(=O)CC(=O)C(C)(C)C.CC(C)(C)C(=O)CC(=O)C(C)(C)C.[La]

>  <target_under_test>
CD2F1 mice, L1210 leukemia ip, survival T/C

>  <T/C>
101 % of control

$$$$
>  <compound>
O=C(O)CCCCc1ccccc1

>  <target_under_test>
CD2F1 mice, L1210 leukemia ip, survival T/C

>  <T/C>
92 % of control

$$$$
>  <compound>
CCOC(=O)Cn1c(=O)cc(C)c2ccccc21

>  <target_under_test>
CD2F1 mice, L1210 leukemia ip, survival T/C

>  <T/C>
101 % of control

$$$$
>  <compound>
CCCCC(C)(C)C

>  <target_under_test>
CD2F1 mice, L1210 leukemia ip, survival T/C

>  <T/C>
99 % of control

$$$$
>  <compound>
COC(=O)N(C)c1cccc(OC(=O)N(C)C)c1

>  <target_under_test>
CD2F1 mice, L1210 leukemia ip, survival T/C

>  <T/C>
99 % of control

$$$$
>  <compound>
CC1=CC(C)N(C(=O)c2ccc(Cl)cc2)CCN1C(=O)c1ccc(Cl)cc1 (centres undefined)

>  <target_under_test>
CD2F1 mice, L1210 leukemia ip, survival T/C

>  <T/C>
102 % of control

$$$$
>  <compound>
CN(C)c1ccc(N=Nc2cccc(Cl)c2Cl)cc1

>  <target_under_test>
CD2F1 mice, L1210 leukemia ip, survival T/C

>  <T/C>
98 % of control

$$$$
>  <compound>
N#CCN(CC#N)CCN(CC#N)CC#N

>  <target_under_test>
CD2F1 mice, L1210 leukemia ip, survival T/C

>  <T/C>
97 % of control

$$$$
>  <compound>
CC(C)C(Br)C(=O)NCC(=O)NCC(=O)O (centres undefined)

>  <target_under_test>
CD2F1 mice, L1210 leukemia ip, survival T/C

>  <T/C>
100 % of control

$$$$
>  <compound>
COc1cc(NC(=O)CC(C)=O)cc(OC)c1OC

>  <target_under_test>
CD2F1 mice, L1210 leukemia ip, survival T/C

>  <T/C>
96 % of control

$$$$
>  <compound>
COc1cc(NC(C)=O)c2ncccc2c1Br

>  <target_under_test>
CD2F1 mice, L1210 leukemia ip, survival T/C

>  <T/C>
97 % of control

$$$$
>  <compound>
COc1ccc(CNCCCC2C3CCC(C3)C2CN)cc1 (centres undefined)

>  <target_under_test>
CD2F1 mice, L1210 leukemia ip, survival T/C

>  <T/C>
95 % of control

$$$$
>  <compound>
COC(=O)C1C2OC3C(OC(=O)C31)C2Br (centres undefined)

>  <target_under_test>
CD2F1 mice, L1210 leukemia ip, survival T/C

>  <T/C>
94 % of control

$$$$
